This section presents molecules with their documented pEC50 values.
- Assayed target: human enzyme NAMPT (full length) (Homo sapiens, UniProt P43490)
- Construct: human enzyme NAMPT (full length)
- Sequence (P43490 whole entry): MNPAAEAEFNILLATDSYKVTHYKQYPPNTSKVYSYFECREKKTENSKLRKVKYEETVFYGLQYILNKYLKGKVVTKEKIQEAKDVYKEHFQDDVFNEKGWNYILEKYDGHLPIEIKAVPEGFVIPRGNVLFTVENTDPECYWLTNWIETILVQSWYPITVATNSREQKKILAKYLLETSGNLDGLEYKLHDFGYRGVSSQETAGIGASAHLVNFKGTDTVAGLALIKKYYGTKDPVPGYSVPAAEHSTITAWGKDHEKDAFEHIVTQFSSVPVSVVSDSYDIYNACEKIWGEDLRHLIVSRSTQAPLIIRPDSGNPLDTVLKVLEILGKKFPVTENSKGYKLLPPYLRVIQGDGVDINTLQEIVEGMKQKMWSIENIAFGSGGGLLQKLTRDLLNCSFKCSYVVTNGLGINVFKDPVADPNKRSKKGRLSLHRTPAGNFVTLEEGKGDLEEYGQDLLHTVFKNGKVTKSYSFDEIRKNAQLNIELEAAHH
- Experimental details: NMN fluorescence biochemical assay (stimulation of NMN synthesis by NAMPT)
- Experimental setup: NMN synthesis by purified human NAMPT (100 nM); concentration giving half-maximal activation; read-out: Enzymatic EC50
pEC50: −log10 of the molar value.

Consider the worked cases shown below.
{"columns": ["Molecule", "pEC50"],
 "data": [
  ["N#Cc1ccc2c(c1)C(Cc1c(Cl)ccnc1C#N)N(Cc1ccc3[nH]c(=O)oc3c1)C2=O (stereo not shown)", "> 6.30"],
  ["C[C@H]1c2cc(C#N)ccc2C(=O)N1Cc1ccc2[nH]c(=O)oc2c1 (single isomer, unassigned)", "≤ 5.30"],
  ["Cc1cccc2c1C(=O)N(Cc1ccc(O)cc1)C2=O", "5.30 to 6.30"]
]}

Now take the following molecule into account.
Per the records, this molecule ( O=C1c2ccccc2C(Cc2ncccc2Br)N1C/C(F)=C/c1c[nH]nn1 (stereo not shown) ) has pEC50 equal to > 6.30

* * *

- Assayed target: human enzyme NAMPT (full length) (Homo sapiens)
- Construct: human enzyme NAMPT (full length)
- Experimental details: NMN fluorescence biochemical assay (stimulation of NMN synthesis by NAMPT)
- Experimental setup: NMN synthesis by purified human NAMPT (100 nM); concentration giving half-maximal activation; read-out: Enzymatic EC50
- Protocol: Certain compounds described herein were assayed for their ability to stimulate the synthesis of nicotinamide mononucleotide (NMN) by human enzyme NAMPT (full length). […] Fluorescence (Ex/Em=382/445 nm) was measured using an Envision plate reader. The potency measurements for the test compounds were quantified and represented as EC50 (concentration of a compound that gives half-maximal activation) and Emax (fold change of a compound's maximal activation compared to DMSO).
This section presents molecules with their documented EC50 values.

Consider the worked cases shown below.
{"columns": ["Molecule", "Assayed target", "Measured attribute", "Value"],
 "data": [
  ["O=C1c2ncccc2CN1Cc1ccc(O)cc1", "human enzyme NAMPT (full length) (Homo sapiens)", "EC50", "≥ 5 µM"],
  ["Cn1ncc(Cl)c1C[C@H]1c2ccccc2C(=O)N1C/C=C/c1c[nH]nn1", "human enzyme NAMPT (full length) (Homo sapiens)", "EC50", "< 0.5 µM"],
  ["O=c1c2ccccc2ccn1Cc1ccc(O)cc1 [Compound 1, 2-(4-hydroxybenzyl)isoquinolin-1(2H)-one]", "human enzyme NAMPT (full length) (Homo sapiens)", "EC50", "≥ 5 µM"]
]}

Per the records, this molecule ( O=c1[nH]n(Cc2ccc(O)cc2)c2ccccc12 ) has EC50 equal to ≥ 5 µM

Per the records, this molecule ( O=C1Cc2ccccc2CN1Cc1ccc(O)cc1 ) has EC50 equal to ≥ 5 µM

Per the records, this molecule ( N#Cc1cccc(CC2c3ccccc3C(=O)N2Cc2ccc3[nH]c(=O)oc3c2)c1F (stereo not drawn) ) has EC50 equal to 0.5 to 5 µM

* * *

- Assayed target: human enzyme NAMPT (full length) (Homo sapiens)
- Construct: human enzyme NAMPT (full length)
- Experimental details: NMN fluorescence biochemical assay (stimulation of NMN synthesis by NAMPT)
- Experimental setup: fold change of maximal activation compared to DMSO

{"columns": ["Molecule", "Enzymatic Emax"],
 "data": [
  ["Cn1nc(C#N)c(CC2c3ccccc3C(=O)N2Cc2ccc3[nH]nnc3c2)c1Cl (stereo not shown) [Compound 352]", "A (A>3)"],
  ["Cn1ncc(Cl)c1CC1c2ccccc2C(=O)N1CC1CC2(CNC(=O)O2)C1 (stereo not shown) [Compound 307]", "B (3≥B>2)"],
  ["O=C1c2ccccc2C(Cc2ccccc2C(F)(F)F)N1Cc1ccc2[nH]c(=O)oc2c1 (stereo not shown) [Compound 134]", "A (A>3)"],
  ["N#Cc1ccccc1CC1c2ccccc2C(=O)N1Cc1ccc(O)c(F)c1 (stereo not shown) [Compound 195]", "B (3≥B>2)"]
]}

* * *

- Assayed target: human enzyme NAMPT (full length) (Homo sapiens)
- Construct: human enzyme NAMPT (full length)
- Experimental details: NMN fluorescence biochemical assay (stimulation of NMN synthesis by NAMPT)
- Experimental setup: NMN fluorescence assay, purified human NAMPT 100 nM; concentration giving half-maximal activation; read-out: Enzymatic EC50
pEC50: −log10 of the molar value.
This section presents molecules with their documented pEC50 values.

Consider the worked cases shown below.
{"columns": ["Molecule", "Assayed target", "pEC50"],
 "data": [
  ["COc1ccc(CN2C(=O)c3ccccc3C2Cc2c(Cl)cnn2C)cc1 (centres unmarked)", "human enzyme NAMPT (full length) (Homo sapiens)", "5.30 to 6.30"],
  ["Cn1ncc(Cl)c1CC1c2cc(N3CCOCC3)ccc2C(=O)N1Cc1ccc2[nH]nnc2c1 (centres unmarked)", "human enzyme NAMPT (full length) (Homo sapiens)", "> 6.30"],
  ["Cn1ncc(Cl)c1CC1c2ccccc2C(=O)N1C/C(F)=C\\c1c[nH]nn1 (centres unmarked)", "human enzyme NAMPT (full length) (Homo sapiens)", "≤ 5.30"],
  ["Cc1cc2[nH]c(=O)oc2cc1CN1C(=O)c2ccccc2C1Cc1ncccc1Br (centres unmarked)", "human enzyme NAMPT (full length) (Homo sapiens)", "5.30 to 6.30"],
  ["Cn1cnc(Cl)c1CC1c2ccccc2C(=O)N1CC1CC2(CNC(=O)O2)C1 (centres unmarked)", "human enzyme NAMPT (full length) (Homo sapiens)", "5.30 to 6.30"],
  ["Cn1ncc(Cl)c1CC1c2ccccc2C(=O)N1C/C=C/c1nn[nH]c1Cl (centres unmarked)", "human enzyme NAMPT (full length) (Homo sapiens)", "≤ 5.30"],
  ["Cn1ncc(Cl)c1CC1c2cc(F)ccc2C(=O)N1Cc1ccc2[nH]nnc2c1 (centres unmarked)", "human enzyme NAMPT (full length) (Homo sapiens)", "5.30 to 6.30"],
  ["CC1NC(=O)OC12CC(CN1C(=O)c3ccccc3C1Cc1ncccc1Br)C2 (centres unmarked)", "human enzyme NAMPT (full length) (Homo sapiens)", "5.30 to 6.30"],
  ["COc1ccc(CN2C(=O)c3ccccc3C2Cc2c(Cl)ccc(=O)n2C)cc1 (centres unmarked)", "human enzyme NAMPT (full length) (Homo sapiens)", "5.30 to 6.30"],
  ["Cn1ncc(Cl)c1CC1c2ccccc2C(=O)N1CC1CCc2[nH]nnc21 (centres unmarked)", "human enzyme NAMPT (full length) (Homo sapiens)", "≤ 5.30"]
]}

pEC50 of O=C1c2ccccc2C(Cc2ncccc2Br)N1Cc1ncc(O)cn1 (centres unmarked) , assay on human enzyme NAMPT (full length) (Homo sapiens), is ≤ 5.30

pEC50 of Cn1ncc(Cl)c1CC1c2c(Cl)cccc2C(=O)N1Cc1ccc2[nH]nnc2c1 (centres unmarked) , assay on human enzyme NAMPT (full length) (Homo sapiens), is 5.30 to 6.30

* * *

- Assayed target: human enzyme NAMPT (full length) (Homo sapiens, UniProt P43490)
- Construct: human enzyme NAMPT (full length)
- Experimental details: NMN fluorescence biochemical assay (stimulation of NMN synthesis by NAMPT)
- Experimental setup: fold change of maximal activation compared to DMSO
Measured attribute: Enzymatic Emax

{"columns": ["Compound", "Assayed target", "Value"],
 "data": [
  ["COCCn1cc(Cl)c(CC2c3ccccc3C(=O)N2Cc2ccc3[nH]c(=O)oc3c2)n1 (centres unmarked) [Compound 277]", "human enzyme NAMPT (full length) (Homo sapiens, UniProt P43490)", "A (A>3)"],
  ["Cn1nc(Cl)c(Cl)c1CC1c2ccccc2C(=O)N1C[C@H]1C[C@@]2(CNC(=O)O2)C1 (some centres unmarked) [Compound 499]", "human enzyme NAMPT (full length) (Homo sapiens, UniProt P43490)", "B (3≥B>2)"],
  ["C[C@@H]1c2ccccc2C(=O)N1Cc1ccc2[nH]c(=O)oc2c1 [Compound 55]", "human enzyme NAMPT (full length) (Homo sapiens, UniProt P43490)", "B (3≥B>2)"],
  ["Cn1ncc(Cl)c1CC1c2ccccc2C(=O)N1Cc1n[nH]c(=O)o1 (centres unmarked) [Compound 632]", "human enzyme NAMPT (full length) (Homo sapiens, UniProt P43490)", "B (3≥B>2)"]
]}

Per the records, this compound ( Cn1ncc(Cl)c1CC1c2cc(Br)ccc2C(=O)N1Cc1ccc2[nH]c(=O)oc2c1 (centres unmarked) [Compound 431] ) has Enzymatic Emax equal to A (A>3)

Per the records, this compound ( O=C1c2ccccc2CN1Cc1ccc2[nH]c(=O)oc2c1 [Compound 33] ) has Enzymatic Emax equal to A (A>3)

Per the records, this compound ( Cn1nnc(Cl)c1CC1c2ccccc2C(=O)N1Cc1ccc2[nH]nnc2c1 (centres unmarked) [Compound 334] ) has Enzymatic Emax equal to A (A>3)

* * *

- Assayed target: human enzyme NAMPT (full length) (Homo sapiens, UniProt P43490)
- Construct: human enzyme NAMPT (full length)
- Experimental details: NMN fluorescence biochemical assay (stimulation of NMN synthesis by NAMPT)
- Experimental setup: NMN synthesis by purified human NAMPT (100 nM); concentration giving half-maximal activation; read-out: Enzymatic EC50
pEC50: −log10 of the molar value.
Measured attribute: pEC50

Consider the worked cases shown below.
{"columns": ["Molecule", "Value"],
 "data": [
  ["O=C1c2ccccc2C(Cc2ncccc2F)N1Cc1ccc2[nH]c(=O)oc2c1 (centres unmarked)", "5.30 to 6.30"],
  ["O=C1c2ccccc2C(Cc2ncccc2Br)N1Cc1cc2oc(=O)[nH]c2cc1F (centres unmarked)", "> 6.30"],
  ["Cn1cnc(C#N)c1CC1c2ccccc2C(=O)N1Cc1ccc2[nH]nnc2c1 (centres unmarked)", "5.30 to 6.30"],
  ["Cc1ccc2c(c1)CN(Cc1ccc3[nH]c(=O)oc3c1)C2=O", "≤ 5.30"],
  ["O=C1c2ccccc2C(Cc2ncccc2Br)N1Cc1ccc2[nH]c(=O)oc2c1 (centres unmarked)", "> 6.30"],
  ["CC1c2cccc(-c3cccnc3)c2C(=O)N1Cc1ccc2[nH]c(=O)oc2c1 (centres unmarked)", "≤ 5.30"]
]}

Per the records, this molecule ( CN(C)c1ccc2c(c1)C(=O)N(Cc1ccc(O)cc1)C2 ) has pEC50 equal to ≤ 5.30

Per the records, this molecule ( O=C1c2ccccc2C(Cc2ncccc2Br)N1Cc1ccc2c(c1)nnn2O (centres unmarked) ) has pEC50 equal to ≤ 5.30

Per the records, this molecule ( O=C1c2ccccc2C(Cc2nnc(Cl)cc2Cl)N1Cc1ccc2[nH]c(=O)oc2c1 (centres unmarked) ) has pEC50 equal to 5.30 to 6.30
